Measured CC50 at 96 h accompanies every entry in the list below.
Experiment: Cytotoxicity against human HOG.R5 cells after 4 days
Type: cell-based
Measure: CC50 at 96 h (µM)

1. C=C(C)[C@@H]1CC[C@]2(C(=O)O)CC[C@]3(C)[C@H](CC[C@@H]4[C@@]5(C)CC[C@H](OC(=O)/C=C\c6ccc(O)cc6)C(C)(C)[C@@H]5CC[C@]43C)[C@@H]12	15.9
2. C=C(C)[C@@H]1CC[C@]2(C(=O)O)CC[C@]3(C)[C@H](CC[C@@H]4[C@@]5(C)CC[C@H](OC(=O)/C=C/c6ccc(O)cc6)C(C)(C)[C@@H]5CC[C@]43C)[C@@H]12	14.3
3. C=C(C)[C@@H]1CC[C@]2(C(=O)O)CC[C@]3(C)[C@H](CC[C@@H]4[C@@]5(C)CC[C@H](O)C(C)(C)[C@@H]5CC[C@]43C)[C@@H]12	16.7
4. C=C(C)[C@@H]1CC[C@]2(C(=O)O)CC[C@]3(C)[C@H](CC[C@@H]4[C@@]5(C)CC[C@H](OC(=O)/C=C\c6ccc(O)c(OC)c6)C(C)(C)[C@@H]5CC[C@]43C)[C@@H]12	22.2
5. C=C(C)[C@@H]1CC[C@]2(C(=O)O)CC[C@]3(C)[C@H](CC[C@@H]4[C@@]5(C)CC[C@H](OC(=O)/C=C/c6ccc(O)c(OC)c6)C(C)(C)[C@@H]5CC[C@]43C)[C@@H]12	13.4
6. C[C@H]1[C@H](C)CC[C@]2(C(=O)O)CC[C@]3(C)C(=CC[C@@H]4[C@@]5(C)CC[C@H](O)C(C)(C)[C@@H]5CC[C@]43C)[C@H]12	15.4

Each recorded value in this set is attributed to ChEMBL document CHEMBL1148153.
